- tested_system: T1, human NPFF2b (hNPFF2) receptor (human, UniProt Q9Y5X5 103-522)
- T1 construct: also called NPFF-like; hNPFF-like
- T1 sequence (Q9Y5X5 103-522): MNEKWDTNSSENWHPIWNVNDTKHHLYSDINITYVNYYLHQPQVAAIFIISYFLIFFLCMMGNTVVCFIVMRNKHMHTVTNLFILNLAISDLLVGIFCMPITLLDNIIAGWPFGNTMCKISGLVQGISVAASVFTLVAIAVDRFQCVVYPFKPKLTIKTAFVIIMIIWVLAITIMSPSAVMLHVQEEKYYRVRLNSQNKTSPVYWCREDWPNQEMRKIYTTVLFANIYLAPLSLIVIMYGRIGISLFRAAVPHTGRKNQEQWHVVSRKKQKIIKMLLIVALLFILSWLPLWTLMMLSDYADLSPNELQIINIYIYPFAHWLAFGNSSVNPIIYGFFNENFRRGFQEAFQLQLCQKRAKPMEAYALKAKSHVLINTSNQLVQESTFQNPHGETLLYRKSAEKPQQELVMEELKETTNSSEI
- assay: competition with [125I]D-Tyr-NPFF, HEK-293 cells with the cloned receptor
No end group written: not given here.
measurement_label: pKi
Please give the numeric answer without any surrounding text.

Asked: # pKi lookup, item APSEPHHPGDQATQDQLAQYYSDLYQYITFVTRPRF (not fully specified; ends and bridges not checked, also called fPP) [Frog pancreatic polypeptide (frog PP) (Rana Temporaria)]
Given back: 7.4

Asked: # pKi lookup, item FMRF (D-Met in place of L-Met, C-terminal amide, also called the D-Met analog) [D-Met-FMRF amide]
Given back: 6.4
